Measured TGI by item
Tested on: NCI/ADR-RES ovarian
Test: NCI tumour cell line growth inhibition, 48 h

Solved entries (count: 2):
• CNC(=O)N(CCC#N)[C@H]1CCCC[C@@H]1N(C(=O)NC)c1ccccc1 = > 100 µM
• COc1ccc(/C=C/c2nccc3ccccc23)cc1OC = > 10 µM

Now, please, on to the next compound.
Input line: Entry "Cn1c2ccccc2n2c(=O)c3cc([N+](=O)[O-])ccc3c(C#N)c12" : reported TGI = ?
Output line: > 100 µM

###

Measured TGI by item
Test system: OVCAR-8 ovarian
Assay: NCI tumour cell line growth inhibition, 48 h

Solved entries (count: 3):
• CC1S/C(=N/c2nnc(-c3ccccc3)o2)NC1=O (centres undefined) = > 100 µM
• COc1ccc2cc(NC(=O)N/N=C\c3ccc(Cl)cc3)ccc2c1 = > 100 µM
• CC1(C)CNC(=O)C2(C=NC(C)(C)CNC(=O)C3(C=N1)CCCO3)CCCO2 (centres undefined) = > 10 µM

Now, please, on to the next molecule.
Input line: Entry CC(=O)OCC(OC(C)=O)C1C[C@H]2O[C@@H]3[C@H](C[C@H]2O1)O[C@@]1(C[C@@H]3C)C[C@H](C)[C@@H]2O[C@]3(C[C@@H]2O1)C[C@H]1O[C@H]2[C@H](C)[C@H]4OC(=O)CC5CC[C@H]6OC7[C@H]8O[C@]9(CC[C@H]%10CC(O)(CO)[C@H](CC[C@H]%11C[C@@H](C)C(O)(CO)C(C[C@@H]4O[C@H]2C[C@H]1O3)O%11)O%10)CC8O[C@@H]7[C@@H](O9)[C@H]6O5 (some centres undefined) : reported TGI = ?
Output line: > 0.271 µM

###

System: OVCAR-4 ovarian
Test: NCI tumour cell line growth inhibition, 48 h
Measured log10 TGI by item
For clarity, the numbers are log10 values of TGI expressed in µM.

• Oc1c(CN2CCC(N3CCCCC3)CC2)cc(Cc2cc(CN3CCC(N4CCCCC4)CC3)c(O)c3ncccc23)c2cccnc12 = 1.13
• COC1/C=C\C=C(/C)C(=O)NC2=CC(=O)C(=O)C(=C2O)CC(C)CC(OC)C(O)C(C)/C=C(\C)C1OC(N)=O (stereo not drawn) = 1.34
• CN1C(=O)C2(Cc3cn(C45CC67SSC(CO)(C(=O)N6C4Nc4ccccc45)N(C)C7=O)c4ccccc34)SSC1(CO)C(=O)N2C (stereo not drawn) = -1.63
• FC(F)(F)c1ccc2nc3n(c2c1)C(c1c(Cl)cccc1Cl)SC3 (stereo not drawn) = 1.48
• CCOc1cc2c(Cl)ncnc2c(OCC)c1OCC = 1.44
• O=c1[nH]ncc(Br)c1Br = 0.49

Now, please, on to the next compound.
Input line: Entry "O=C(N/N=C/c1cc(Br)cc(Br)c1[O-])c1ccccc1O.O=C(N/N=C/c1cc(Br)cc(Br)c1[O-])c1ccccc1O.[Fe+2]" : reported log10 TGI = ?
Output line: 1.26

###

Tested on: U251 CNS
Assay: NCI tumour cell line growth inhibition, 48 h
Measured TGI by item

Solved entries (count: 2):
* Cc1ccc2c(c1)[n+]([O-])c(N)n[n+]2[O-] | > 100 µM
* O=C1CCC2(c3ccc(F)cc3)Nc3cc(Cl)ccc3N12 (stereo not drawn) | > 100 µM

Now, please, on to the next compound.
Input line: Entry CC(C)(C)C1C=C(Sc2ccccc2)C(=O)O1 (stereo not drawn) : reported TGI = ?
Output line: > 100 µM

Source listed as PubChem BioAssay (NCI).
